# System: Hepatitis C virus
# ASSAY PROCEDURE: Inhibition of hepatitis C virus in a cell based HCV replicon assay.
# Assay type: functional, organism-based, Hepacivirus hominis
READOUT LABEL: EC50 (nM)

Answered cases to consult:
IN: What value of EC50 has been recorded for this entry: COc1ccc2c(O[C@@H]3C[C@H]4C(=O)N[C@]5(C(=O)O)C[C@H]5/C=C\CCCCC[C@H](NC(=O)OC(C)(C)C)C(=O)N4C3)ccnc2c1
OUT: 1200

IN: What value of EC50 has been recorded for this entry: COc1ccc2c(O[C@@H]3C[C@H]4C(=O)N[C@]5(C(=O)O)C[C@H]5/C=C\CCCCC[C@H](NC(=O)OC5CCCC5)C(=O)N4C3)cc(-c3csc(NC(C)=O)n3)nc2c1
OUT: 0.4

a = COc1ccc2c(O[C@@H]3C[C@H]4C(=O)N[C@]5(C(=O)O)C[C@H]5/C=C\CCCCC[C@H](NC(=O)OC(C)(C)C)C(=O)N4C3)cc(-c3nnc(C)o3)nc2c1
b = CCNc1nc(-c2cc(O[C@@H]3C[C@H]4C(=O)N[C@]5(C(=O)O)C[C@H]5/C=C\CCCCC[C@H](NC(=O)OC5CCCC5)C(=O)N4C3)c3ccc(OC)cc3n2)cs1
c = C=C[C@@H]1C[C@]1(NC(=O)[C@@H]1C[C@@H](Oc2cc(-c3ccccc3)nc3ccccc23)CN1C(=O)[C@@H](NC(=O)[C@@H](NC(=O)[C@@H](CCC(=O)O)NC(=O)[C@H](CC(=O)O)NC(C)=O)c1ccccc1)C(C)(C)C)C(=O)O
IN: Endpoint returns the given compounds ordered by ascending EC50. Rank them, then answer with their labels in that order.
OUT: b, a, c
